From: patent US8492404B2

# target.desc: Lck kinase enzyme (Homo sapiens, UniProt P06239)
# Construct: LCK KD GST (225-509); GST
# Sequence (P06239 225-509): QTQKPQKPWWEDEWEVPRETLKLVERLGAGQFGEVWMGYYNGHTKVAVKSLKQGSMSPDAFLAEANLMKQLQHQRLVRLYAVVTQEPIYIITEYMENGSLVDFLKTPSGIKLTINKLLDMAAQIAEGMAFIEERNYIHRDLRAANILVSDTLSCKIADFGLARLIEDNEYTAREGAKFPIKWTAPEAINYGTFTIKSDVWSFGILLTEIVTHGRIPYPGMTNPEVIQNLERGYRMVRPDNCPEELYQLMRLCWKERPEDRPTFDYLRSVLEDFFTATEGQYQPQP
# protocol.description: LCK-Homogeneous Time Resolved Fluorescent (HTRF) Kinase Assay
# Type: biochemical
# condition.parameters: read-out: average IC50 value for the inhibition of the Lck kinase enzyme
measurement.label: IC50

Cc1ccc(NC(=O)c2cc3ccccc3n2C)cc1C(=O)Nc1cnc(Nc2ccc(N3CCN(C)CC3)cc2)nc1
≤ 10 µM
